# subject of test: CLK2 (Homo sapiens (Human), UniProt P49760)
# Sequence (P49760 whole entry): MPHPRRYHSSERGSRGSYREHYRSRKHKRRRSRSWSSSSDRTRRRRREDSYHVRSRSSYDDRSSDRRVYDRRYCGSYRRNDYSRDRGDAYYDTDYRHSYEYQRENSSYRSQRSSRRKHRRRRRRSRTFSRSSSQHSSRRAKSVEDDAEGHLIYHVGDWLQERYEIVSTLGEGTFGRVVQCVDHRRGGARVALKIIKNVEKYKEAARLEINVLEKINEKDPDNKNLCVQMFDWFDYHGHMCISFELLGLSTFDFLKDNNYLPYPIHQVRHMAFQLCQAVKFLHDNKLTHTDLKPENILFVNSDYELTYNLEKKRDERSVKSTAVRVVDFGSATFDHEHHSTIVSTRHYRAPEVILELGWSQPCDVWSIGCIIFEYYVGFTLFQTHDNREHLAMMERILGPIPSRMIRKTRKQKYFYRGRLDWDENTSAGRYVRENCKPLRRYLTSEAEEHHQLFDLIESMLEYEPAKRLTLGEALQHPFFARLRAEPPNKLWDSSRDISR
pIC50: −log10 of the molar value.
property name: pIC50

>>> experimental_result("CNC(=O)c1ccc(-c2c[nH]c3nc(Nc4ccc(C(=O)NC5CN(C)C5)cc4OC)nc(OC4CCC(C)(O)CC4)c23)cc1 (stereo not shown) [Compound 349]")
8.84

----------
# Test system: breast cancer cell lines
# assay summary: cells
# condition: Homo sapiens, HCC1419, 96 h, read-out: Growth Inhibition IC50
property name: IC50 (nM)

>>> experimental_result("CNC(=O)c1ccc(Nc2nc(OC(C)C)c3c(-c4ccc5nc(C)oc5c4)c[nH]c3n2)c(OC)c1")
2510
